Source of measurements: patent US20070020327A1

Test Target: HLA-A*0203 (human)
Experimental Details: competition with 125I-labelled standard peptide for purified HLA, gel filtration
Quantity Name: binding affinity ratio (IC50 of standard peptide / IC50 of test peptide)

| Binder | Number |
| --- | --- |
| PAVYTKVV (modifications not checked) [Kallikrein 240 PAVYTKVV] | -0.0001 |
| PAELTDAV (modifications not checked) [PSA 125 PAELTDAV] | -0.0001 |
| PLIQSRIV (modifications not checked) [Kallikrein 19 PLIQSRIV] | -0.0001 |
| PLYNMSLL (modifications not checked) [Kallikrein 99 PLYNMSLL] | 0.0002 |
